target: T1, gH/gL/UL128/UL130/UL131A pentamer complex expressed from MVA-PC in BHK-21 cells (human cytomegalovirus, UniProt P12824 24-743; P16832 31-278; P16837 28-171; P16772 1-214; F5HET4 19-129); assay: FC competition, MVA-PC BHK-21; unlabelled row Ab; competitor: biotinylated 2-80; also: test concentration or dose not given here
T1 construct: whole, on cells
Readout: Binding Inhibition (%)
Please give a number only; it is taken to be in %.

Reported Binding Inhibition (%) of 21E9 (antibody, V domains shown, also called NAb 21E9) VH: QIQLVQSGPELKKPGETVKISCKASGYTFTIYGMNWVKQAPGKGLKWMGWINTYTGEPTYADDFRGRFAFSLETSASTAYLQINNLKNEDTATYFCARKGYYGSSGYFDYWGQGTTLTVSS VL: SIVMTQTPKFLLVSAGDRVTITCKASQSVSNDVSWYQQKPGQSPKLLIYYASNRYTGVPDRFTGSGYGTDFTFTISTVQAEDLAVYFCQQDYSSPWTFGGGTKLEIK : 100
